System: PBMC
Assay: Cytotoxicity against human PBMC assessed as growth inhibition by CellTiter 96 non-radioactive cell proliferation colorimetric assay
Format: cell-based
Reported CC50 values are given for each entry in this list.
property.name: CC50 (µM)

| compound | relation.qualifier | endpoint.result |
| --- | --- | --- |
| COC(=O)C1=C(CN2CCOCC2)NC(c2ccccn2)=NC1c1ccc(F)cc1Cl (racemic) | > | 100 |
| CC1(C)CC(=O)c2c(Cc3ccc(F)cc3Cl)nc(-c3cccnc3)nc2C1 | > | 100 |
| CC1=C(C(=O)SC(C)C)C(c2ccc(F)cc2Cl)N=C(c2ccccn2)N1 (stereo not given) | = | 31 |
| COC(=O)c1c(Cc2ccccc2)nc(-c2ccccn2)nc1CN1CCN(C)CC1 | > | 100 |
| COC(=O)c1c(C)nc(-c2ccccn2)nc1Cc1ccccc1 | = | 67 |

====

Test system: CCRF-CEM
Test: Cytotoxicity against human CEM cells assessed as growth inhibition by CellTiter 96 non-radioactive cell proliferation colorimetric assay
Format: cell-based
Details: ccrf-cem
Classify by CC50. Ranges: low = under 4 µM, middle = from 4 µM up to 40 µM, high = 40 µM and over

| compound | assigned.category |
| --- | --- |
| COC(=O)c1c(CSc2ccccc2)nc(-c2ccccn2)nc1Cc1ccccc1 | middle |
| COC(=O)c1c(Cc2ccccc2)nc(-c2ccccn2)nc1CN1CCOCC1 | low |
| COC(=O)C1=C(CSc2ccccc2)NC(c2ccccn2)=NC1Cc1ccccc1 (stereo not given) | middle |
| CC1=C(Cl)C(c2ccc(F)cc2Cl)N=C(c2ccccn2)N1 (stereo not given) | high |
| CC1=C(C(=O)NS(=O)(=O)N(C)C)C(c2ccc(F)cc2Cl)N=C(c2ccccn2)N1 (stereo not given) | high |
| CCCC[n+]1ccn(CC2=C(C(=O)OC)C(c3ccc(F)cc3Cl)N=C(c3ccccn3)N2)c1 (stereo not given) | low |
| COCCOCc1nc(-c2ccccn2)nc(Cc2ccccc2)c1C(=O)OC | high |
| CC1(C)CC(=O)c2c(Cc3ccc(F)cc3Cl)nc(-c3cccnc3)nc2C1 | high |
| CC1=C(I)C(c2ccc(F)cc2Br)N=C(c2nccs2)N1 (stereo not given) | middle |

====

Test system: PBMC
Experiment: Cytotoxicity against human PBMC assessed as growth inhibition by CellTiter 96 non-radioactive cell proliferation colorimetric assay
Assay type: cell-based

| molecule | relation.qualifier | CC50, µM |
| --- | --- | --- |
| CC(=O)NC1=C(CN2CCOCC2)NC(c2ccccn2)=NC1c1ccc(F)cc1Cl (configuration not stated) | = | 28 |
| COC(=O)C1=C(CN2CCN(C)CC2)NC(c2ccccn2)=NC1Cc1ccccc1 (configuration not stated) | > | 100 |
| CC(=O)NC1=C(C)NC(c2ccccn2)=NC1c1ccc(F)cc1Cl (configuration not stated) | > | 100 |
| COCCOCc1nc(-c2ccccn2)nc(Cc2ccccc2)c1C(=O)OC | = | 99 |
| COC(=O)c1c(CSc2ccccc2)nc(-c2ccccn2)nc1Cc1ccccc1 | = | 65 |
| CC1(C)CC(=O)c2c(Cc3ccc(F)cc3Cl)nc(-c3ccccn3)nc2C1 | = | 69 |
| CC1(C)CC(=O)c2c(Cc3ccccc3)nc(-c3ccccn3)nc2C1 | = | 43 |
| CC1=C(C(=O)OCC(F)(F)F)C(c2ccc(F)cc2Cl)N=C(c2ccccn2)N1 (configuration not stated) | > | 100 |
| CCS(=O)(=O)CC1=C(C(=O)OC)C(c2ccc(F)cc2Cl)N=C(c2ccccn2)N1 (configuration not stated) | > | 100 |
| CC1=C(C(=O)NS(=O)(=O)N(C)C)C(c2ccc(F)cc2Cl)N=C(c2ccccn2)N1 (configuration not stated) | > | 100 |
| CC1=C(I)C(c2ccc(F)cc2Cl)N=C(c2ccccn2)N1 (configuration not stated) | = | 80 |
| COC(=O)c1c(Cc2ccccc2)nc(-c2ccccn2)nc1CN1CCOCC1 | = | 81 |
| COC(=O)C1=C(CS(=O)(=O)Cc2ccc(C)cc2)NC(c2ccccn2)=NC1c1ccc(F)cc1Cl (configuration not stated) | = | 67 |
| CC1(C)CC(=O)C2=C(C1)NC(c1cccnc1)=NC2c1ccc(F)cc1Cl (racemic) | > | 100 |
| CC1=C(I)C(c2ccc(F)cc2Br)N=C(c2nccs2)N1 (configuration not stated) | = | 80 |
| COC(=O)C1=C(Cn2cc[n+](C)c2)NC(c2ccccn2)=NC1c1ccc(F)cc1Cl (configuration not stated) | = | 44 |
| COC(=O)C1=C(CN=[N+]=[N-])NC(c2ccccn2)=NC1c1ccc(F)cc1Cl (configuration not stated) | > | 100 |
